experiment: protein stability index of a GFP-peptide fusion (yeast GPS) (PSI 1-4); higher = more stable; sorted into four equal gates, so the index is relative within each strain; conditions: san1∆
Classify as follows. Reported protein stability index greater than or equal to 3: Fulfilled. Reported protein stability index below: Not fulfilled.

[[record]]
seq_text = "EELILPNTKDAMSLYHS [PRP8]"
qualitative_label = "Fulfilled"

[[record]]
seq_text = "KIKDNKEKIKNNRQLPY [RPT5]"
qualitative_label = "Fulfilled"

[[record]]
seq_text = "DELILEAKERYTDRDQD [NNF1]"
qualitative_label = "Fulfilled"

[[record]]
seq_text = "VPYVLMGQIATFIYFAY [COB]"
qualitative_label = "Not fulfilled"

[[record]]
seq_text = "LIPCKYLNRHADFFVRE [RPN7]"
qualitative_label = "Not fulfilled"

[[record]]
seq_text = "ESYYNWKYNNFLQKFEI [YML103C/NUP188]"
qualitative_label = "Not fulfilled"

[[record]]
seq_text = "TNFKEEITDASLNLQYV [YML103C/NUP188]"
qualitative_label = "Fulfilled"

[[record]]
seq_text = "FVDLNEKELQNEIKQLG [SRB4]"
qualitative_label = "Not fulfilled"

[[record]]
seq_text = "MAPYLPGSRASSRFIKG [RPN2]"
qualitative_label = "Not fulfilled"

[[record]]
seq_text = "SRQVQKRPRSRTLTAVH [RPS7A]"
qualitative_label = "Not fulfilled"

[[record]]
seq_text = "APPQTRKFQPPPGFKRK [SMB1]"
qualitative_label = "Fulfilled"

[[record]]
seq_text = "DRETALDFIGRRGTALG [RPB2]"
qualitative_label = "Not fulfilled"

[[record]]
seq_text = "DRKHVAALRTVKSLVDN [RPL9B]"
qualitative_label = "Not fulfilled"

[[record]]
seq_text = "IRLANESSELNKDSIEE [CSN12]"
qualitative_label = "Fulfilled"

[[record]]
seq_text = "IPVEILVRRLSDIKQGY [PRE9]"
qualitative_label = "Not fulfilled"

[[record]]
seq_text = "PKELGGLGMISASHILI [PRP8]"
qualitative_label = "Not fulfilled"

[[record]]
seq_text = "QALEKIGIVEISPKGGR [RPS19A]"
qualitative_label = "Not fulfilled"

[[record]]
seq_text = "LHANGASFFFMVMFMHM [COB]"
qualitative_label = "Not fulfilled"

[[record]]
seq_text = "QSFQNPFTASQSNINTN [YIL149C/MLP2]"
qualitative_label = "Not fulfilled"

[[record]]
seq_text = "DKVTSQAVNNLIKTLST [RPP1]"
qualitative_label = "Not fulfilled"

[[record]]
seq_text = "DDEHNPTIVGGLYYQRP [AAR2]"
qualitative_label = "Not fulfilled"

[[record]]
seq_text = "SAWIWPMDEETKLYFDV [RPC25]"
qualitative_label = "Not fulfilled"

[[record]]
seq_text = "ASYLTPLLEAKKLVWPL [SSN2]"
qualitative_label = "Not fulfilled"

[[record]]
seq_text = "RNQILVSITDAPKIHIL [YMR129W/POM152]"
qualitative_label = "Not fulfilled"

[[record]]
seq_text = "PEYYSTARVMGGLKNGV [DIS3]"
qualitative_label = "Fulfilled"


====

assay: protein stability index of a GFP-peptide fusion (yeast GPS) (PSI 1-4); higher = more stable; sorted into four equal gates, so the index is relative within each strain; details: pdr5∆
QUANTITY MEASURED: protein stability index

[[record]]
seq_text = "MTMQVAVPRDELGRSNY [FAS1]"
observed = 3

[[record]]
seq_text = "KGYVFKISGGNDKQGFP [RPS6A]"
observed = 2.89

[[record]]
seq_text = "QLSNWQKIRNSEGISEA [ITC1]"
observed = 2.96

[[record]]
seq_text = "IEDDGIIESHLIQLQNI [CSN9]"
observed = 3.17

[[record]]
seq_text = "LGINLVTADTVILFDSD [ISW2]"
observed = 2.65

[[record]]
seq_text = "IPAWFLNRQNDITDGKD [RPS18A]"
observed = 3.22

[[record]]
seq_text = "KIKDNKEKIKNNRQLPY [RPT5]"
observed = 3.24

[[record]]
seq_text = "TNVQRIAAYIRRHRNPD [SMC1]"
observed = 3.32

[[record]]
seq_text = "GTNNARLAQLLRQLASY [RPN1]"
observed = 3.09

[[record]]
seq_text = "IQCQIDKLYIHFVQEEP [RGR1]"
observed = 2.55

[[record]]
seq_text = "DTQFTKLLDDNPTEFDW [SRB8]"
observed = 3.04

[[record]]
seq_text = "CKKKEMSQYQSTMKENK [YIL149C/MLP2]"
observed = 2.76

[[record]]
seq_text = "PKVSAGDSGISPEESKA [SIR4]"
observed = 3.46

[[record]]
seq_text = "SQSLTSILVIVQKILPL [SWI1]"
observed = 1.39

[[record]]
seq_text = "IIFEIEKPLVVPVKLEE [RRP6]"
observed = 2.28


====

assay: protein stability index of a GFP-peptide fusion (yeast GPS) (PSI 1-4); higher = more stable; sorted into four equal gates, so the index is relative within each strain; conditions: san1∆
QUANTITY MEASURED: protein stability index

[[record]]
seq_text = "QLELRQLNASISLIPEL [RRI2]"
observed = 2.42

[[record]]
seq_text = "RTWYESFCGFLLYYIPS [YJR042W/NUP85]"
observed = 1.58

[[record]]
seq_text = "DKIPLNYAMTRNILHNT [SRB5]"
observed = 1.83

[[record]]
seq_text = "KRPRSRTLTAVHDKILE [RPS7A]"
observed = 2.25

[[record]]
seq_text = "LEQQKQPTGLLKGLNGF [YMR153W/NUP53]"
observed = 3.18

[[record]]
seq_text = "KDRLYCGKCHSVYKVNA [RPS31]"
observed = 1.89

[[record]]
seq_text = "PLLSNYASKINRAEGPE [RGR1]"
observed = 2.87

[[record]]
seq_text = "LKSLNDIETQLCSMLQE [MED11]"
observed = 2.73

[[record]]
seq_text = "NEISRNGTMINEVIDKL [PCI8]"
observed = 2.48

[[record]]
seq_text = "KKKGLDENTSGKISKPR [PRP28]"
observed = 3.52

[[record]]
seq_text = "SFTQGELNDLKWGRNQP [YMR129W/POM152]"
observed = 3.14

[[record]]
seq_text = "ILDAICFVLGIASMSTV [SMC2]"
observed = 1.78

[[record]]
seq_text = "GVYSDDELLSQLDLCKL [SRP68]"
observed = 3.23

[[record]]
seq_text = "SKDLRSVWKPIAAIIGR [IRR1]"
observed = 2.75

[[record]]
seq_text = "VSSTIPRETIPFLHLRK [FAS2]"
observed = 2.79

[[record]]
seq_text = "QDKEGIPPDQQRLIFAG [RPS31]"
observed = 3.19

[[record]]
seq_text = "MTTSAVSPTVGKLFSDI [YIL149C/MLP2]"
observed = 3.24

[[record]]
seq_text = "RKLMEMENILQRCKSNA [YIL149C/MLP2]"
observed = 2

[[record]]
seq_text = "SGWGAVVYIIKKDEVVK [PUP3]"
observed = 3.33

[[record]]
seq_text = "TWENEFLDSQRVWAEYA [PRP8]"
observed = 2.13

[[record]]
seq_text = "IDKFIMVVQKYKLSTVV [GRR1]"
observed = 1.58

[[record]]
seq_text = "GLSQTEAFGNIKIDAKP [MCD1]"
observed = 1.77

[[record]]
seq_text = "VFYAPNVKNYSTTQEIL [RPC34]"
observed = 3.02

[[record]]
seq_text = "GYMQKPVYATIGVETGS [PRP28]"
observed = 1.68

[[record]]
seq_text = "TSPEKKDGGDKPPSSAF [YAR002W/NUP60]"
observed = 3.3

[[record]]
seq_text = "EYKTSSDSLGPDTSNEI [SRB2]"
observed = 2.96

[[record]]
seq_text = "EFDRRILKKSLMTSHTK [RTT102]"
observed = 2.4

[[record]]
seq_text = "GNIVAELAQDPQTMEHY [YCS4]"
observed = 3.44

[[record]]
seq_text = "VEQTAEVTIEDALKVVL [RPS12]"
observed = 3.19

[[record]]
seq_text = "SAQAETEALLLEHDVEY [DIS3]"
observed = 3.3


====

protein stability index: recorded values
assay: protein stability index of a GFP-peptide fusion (yeast GPS) (PSI 1-4); higher = more stable; sorted into four equal gates, so the index is relative within each strain; conditions: san1∆
QUANTITY MEASURED: protein stability index

[[record]]
seq_text = "SLGIRPCLRKYEEFRDV [RRP43]"
observed = 3.21

[[record]]
seq_text = "GTNNARLAQLLRQLASY [RPN1]"
observed = 3.21

[[record]]
seq_text = "KFLKIASLKHDNETKAM [RPN3]"
observed = 2.76

[[record]]
seq_text = "IESDSILNLLNILTTHL [ECM29]"
observed = 1.75

[[record]]
seq_text = "ICYDVNDWQMLEMLKPC [RPB2]"
observed = 2.46

[[record]]
seq_text = "KAELEKQKSWVPSYIHV [YIL149C/MLP2]"
observed = 2.15

[[record]]
seq_text = "VAALKAVGAHSDLLKVL [RPL4A]"
observed = 2.71

[[record]]
seq_text = "KHGAVHMSTYLKIYKVG [RPL21B]"
observed = 1.9

[[record]]
seq_text = "SKATGAPSANQGDEALS [RTT102]"
observed = 3.13

[[record]]
seq_text = "KADAQREKALNEEAEAR [RPL19A]"
observed = 3.23

[[record]]
seq_text = "ILQIREEIPSKSWDDSV [RRP6]"
observed = 2.32

[[record]]
seq_text = "HWMGSSVSGSPRPSYSS [YMR129W/POM152]"
observed = 2.74

[[record]]
seq_text = "RNKSAANNDINSLLSNF [YDL088C/ASM4]"
observed = 2.99

[[record]]
seq_text = "PNFLIMQGKITKVLNMK [SMC2]"
observed = 2.85

[[record]]
seq_text = "FNFFEPIKEAKIKHGSV [YMR129W/POM152]"
observed = 2.54

[[record]]
seq_text = "RNILHNTVPQVTNFNST [SRB5]"
observed = 1.92

[[record]]
seq_text = "MENIKKSIDSKTPEEVE [ISW2]"
observed = 3.13

[[record]]
seq_text = "DSLISGVKQKITIQLTR [BRR2]"
observed = 2.66

[[record]]
seq_text = "MSRPQVTVHSLTGEATA [RPL4A]"
observed = 1.88

[[record]]
seq_text = "AQQKLKQNPGLMQNMMN [SRP54]"
observed = 2.79

[[record]]
seq_text = "SGTPTLKKNIEPKKDKE [YOR098C/NUP1]"
observed = 2.71

[[record]]
seq_text = "IPRHLQLAIRNDDELNK [HTA1]"
observed = 3.28

[[record]]
seq_text = "SNGLLSIVLLLLSQFGI [YML103C/NUP188]"
observed = 1.41

[[record]]
seq_text = "ECLQAYIFFGPIYYQKL [RET1]"
observed = 2.24

[[record]]
seq_text = "QEYAIEMKIGSIESKLE [SMC1]"
observed = 2.74

[[record]]
seq_text = "DIETQLCSMLQEASQVT [MED11]"
observed = 2.32

[[record]]
seq_text = "GRHHQEEELFQEMIEIS [SRP54]"
observed = 3.41

[[record]]
seq_text = "SLQDSIIKQENFNSVND [SSN2]"
observed = 2.48

[[record]]
seq_text = "AAKLKQTENDLKDIEAR [RPT1]"
observed = 2.46

[[record]]
seq_text = "RVKDIHLRKLLDGELDF [RET1]"
observed = 3.03

[[record]]
seq_text = "LTVAMYINSDSVNPAML [RPO31]"
observed = 2.69

[[record]]
seq_text = "KFTIEPGVLPVGIDTHT [SNF2]"
observed = 3

[[record]]
seq_text = "QGTGKKTASLGNSKDDL [ISW2]"
observed = 3.41

[[record]]
seq_text = "PTFTFGSSALADNKEDV [YLR335W/NUP2]"
observed = 3.06

[[record]]
seq_text = "GLVNHRVGVKLKFNSTE [SMX3]"
observed = 1.94

[[record]]
seq_text = "TAASVFKELCYENKDNL [PRE3]"
observed = 2.38

[[record]]
seq_text = "GKKLTDEINTAQDKWHL [RET1]"
observed = 3.09

[[record]]
seq_text = "NPIIENNVDNKYKSGGK [SSN2]"
observed = 3.04

[[record]]
seq_text = "SPDSTVNRSVVVSAVGE [YAR002W/NUP60]"
observed = 3.28

[[record]]
seq_text = "LDVSSDRRKARKAYFTA [RPL26A]"
observed = 2.42

[[record]]
seq_text = "WKYEDVVAKLEDKRKVR [RPL16B]"
observed = 2.36

[[record]]
seq_text = "ERNAFLSDYEVLKFLTD [RPC17]"
observed = 3.28

[[record]]
seq_text = "VVDHHVENELLQVDVDI [RRP42]"
observed = 2.83

[[record]]
seq_text = "LQAFGESESTTNVYSKD [RPB3]"
observed = 1.68

[[record]]
seq_text = "FEQTAFSRHAQQQTSTF [SIR4]"
observed = 1.79

[[record]]
seq_text = "NVLNRIQELEDQRDELL [ITC1]"
observed = 3.5

[[record]]
seq_text = "CDEHMGLSLAGLAPDAR [PRE5]"
observed = 2.56

[[record]]
seq_text = "TDGDSILYYDVLFITPD [BRR2]"
observed = 2.54

[[record]]
seq_text = "ELEKYNELERNRKIYQF [SMC3]"
observed = 2.38

[[record]]
seq_text = "LQKALTVKTNDELMVIY [RPN8]"
observed = 1.84

[[record]]
seq_text = "SSKYAYMMNSQSPRGKI [YLR018C/POM34]"
observed = 2.75

[[record]]
seq_text = "TVAHIQYDFKAVLEEND [RPN14]"
observed = 2.26

[[record]]
seq_text = "NPPYSQCIVYPNCLFIL [SOH1]"
observed = 1.86

[[record]]
seq_text = "VIVPQIVLDEVRNKSYP [DIS3]"
observed = 2.79

[[record]]
seq_text = "AFDKHMNLVLNECIEER [SMB1]"
observed = 2.68

[[record]]
seq_text = "DISLKADLERFFLSIYF [YJL039C/NUP192]"
observed = 2.96

[[record]]
seq_text = "MKLKLMIVYYKDAISFI [YCS4]"
observed = 1.8

[[record]]
seq_text = "PGPYPNEQAARAANQGA [CYT1]"
observed = 2.33

[[record]]
seq_text = "RRIIQNAQQTFHIDHTK [RPO21]"
observed = 3

